B1: Ankyrin repeat and SAM domain-containing protein 6, residues 774 to 836; numbered along this chain, Q68DC2 (parent)
chain: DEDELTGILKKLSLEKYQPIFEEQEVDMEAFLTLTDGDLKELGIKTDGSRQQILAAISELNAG

- Variants of: B1
- method notes: abundance fitness (aPCA) (normalised: wild type 0, dead -1); higher = more abundant; growth selection in yeast, the domain comes from the species named
- condition label: Homo sapiens

[
  {
    "mutant name": "Q51P",
    "abundance fitness": -0.54
  },
  {
    "mutant name": "N61M",
    "abundance fitness": -0.333
  },
  {
    "mutant name": "Q24T",
    "abundance fitness": -0.257
  },
  {
    "mutant name": "K40C",
    "abundance fitness": -0.215
  },
  {
    "mutant name": "K16I",
    "abundance fitness": -0.408
  },
  {
    "mutant name": "D3F",
    "abundance fitness": 0.084
  },
  {
    "mutant name": "Q18P",
    "abundance fitness": -0.786
  },
  {
    "mutant name": "A56M",
    "abundance fitness": -0.227
  },
  {
    "mutant name": "D38T",
    "abundance fitness": -0.369
  },
  {
    "mutant name": "I44N",
    "abundance fitness": -0.645
  },
  {
    "mutant name": "K16C",
    "abundance fitness": -0.083
  },
  {
    "mutant name": "T35A",
    "abundance fitness": -0.377
  },
  {
    "mutant name": "I44W",
    "abundance fitness": -0.654
  },
  {
    "mutant name": "I44V",
    "abundance fitness": 0.037
  },
  {
    "mutant name": "K16V",
    "abundance fitness": -0.113
  },
  {
    "mutant name": "A55L",
    "abundance fitness": -0.159
  },
  {
    "mutant name": "V26D",
    "abundance fitness": -0.821
  },
  {
    "mutant name": "D3E",
    "abundance fitness": -0.078
  },
  {
    "mutant name": "S49D",
    "abundance fitness": 0.157
  },
  {
    "mutant name": "L14M",
    "abundance fitness": -0.303
  }
]

Data origin, for the record: the Human Domainome abundance scans (Beltran et al. 2025)
